Molecular target: T1, 4H619-bH
T1 chain: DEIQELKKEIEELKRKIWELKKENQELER
Assay: two-hybrid library CCNG1;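 note: natural log of median RNA to DNA barcode read ratio; higher means stronger binding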

[
  {
    "binder": "DEIQELKKEIEELKREIWELEKKNQELKR [4H584-bH]",
    "interaction score": 1.2
  },
  {
    "binder": "DEIQELKKEIEELKRKIWELKKENQELER [4H619-bH]",
    "interaction score": 0.749
  },
  {
    "binder": "DKIQELEKKNEELERKIWELKKEIQELER [4H2473-bH]",
    "interaction score": -2.35
  },
  {
    "binder": "DKNQELKKEIEELERKIWELKKKNQELER [4H3631-bH]",
    "interaction score": 0.647
  }
]

The origin of these recorded values is paper PMC10397247.
